Catalogue of molecules with associated MIC
# Test system: Mannheimia haemolytica MH 10720 (154, BRD field isolate)
# assay.notes: MIC, broth-microdilution (CLSI VET01-A4)
# Assay type: cell-based
# measurement.parameters: Mannheimia haemolytica MH 10720; read-out: MIC MH 10720
Please answer using the number first and the unit second.

Known results for molecules:
# input Item CSC(C)(C)[C@H](NC(=O)c1ccc(C#Cc2ccc(CNCc3cccnc3)cc2)cc1)C(=O)NO : provide MIC
# output 0.2 µM

# input Item CC(C)C(NC(=O)c1ccc(C#Cc2ccc(CNCc3ccccn3)cc2)cc1)C(=O)NO (stereo not shown) : provide MIC
# output 0.2 µM

# input Item CSC(C)(C)[C@H](NC(=O)c1ccc(C#Cc2ccc(CNCc3ccccn3)cc2)cc1)C(=O)NO : provide MIC
# output 0.2 µM

Next:
# input Item C#CCNCc1ccc(C#Cc2ccc(C(=O)NC(C(=O)NO)C(C)(C)N)cc2)cn1 (racemic) : provide MIC
# output 0.4 µM

###

Catalogue of compounds with associated MIC
# Tested on: Pasteurella multocida PM 12080 (IV102277-0093, BRD field isolate)
# assay.notes: MIC, broth-microdilution (CLSI VET01-A4)
# Assay type: cell-based
# measurement.parameters: Pasteurella multocida PM 12080; read-out: MIC PM 12080

# input Item C=CCNCc1ccc(C#Cc2ccc(C(=O)NC(C(=O)NO)C(C)(C)SC)cc2)cc1 (stereo not shown) : provide MIC
# output 0.4 µM

# input Item CSC(C)(C)[C@H](NC(=O)c1ccc(C#Cc2ccc(CNCc3cccnc3)cc2)cc1)C(=O)NO : provide MIC
# output 0.2 µM

# input Item C[C@@H](O)[C@H](NC(=O)c1ccc(C#Cc2ccc(CN(C)Cc3ccccc3)o2)cc1)C(=O)NO : provide MIC
# output 0.2 µM

###

# Tested on: Mannheimia haemolytica MH 10720 (154, BRD field isolate)
# assay.notes: MIC, broth-microdilution (CLSI VET01-A4)
# Type: cell-based
# measurement.parameters: Mannheimia haemolytica MH 10720; read-out: MIC MH 10720
Catalogue of compounds with associated MIC
Field: numeric (µM). Do not append units.

# input Item CC(C)(N)C(NC(=O)c1ccc(C#Cc2ccc([N+](=O)[O-])cc2)cc1)C(=O)NO (stereo not shown) : provide MIC
# output 0.2

# input Item CC(C)([C@H](NC(=O)c1ccc(C#Cc2ccc(CN3CCOCC3)cc2)cc1)C(=O)NO)S(C)(=O)=O : provide MIC
# output 0.2

# input Item CC(C)(N)C(NC(=O)c1ccc(C#Cc2ccc(CNCc3cccnc3)cc2)cc1)C(=O)NO (racemic) : provide MIC
# output 0.8

# input Item C=C(C)CNCc1ccc(C#Cc2ccc(C(=O)N[C@H](C(=O)NO)[C@@H](C)O)cc2)cn1 : provide MIC
# output 0.2

###

Catalogue of compounds with associated MIC
# System: Mannheimia haemolytica MH 10720 (154, BRD field isolate)
# assay.notes: MIC, broth-microdilution (CLSI VET01-A4)
# Format: cell-based
# measurement.parameters: strain MH 10720
# Experimental: The Minimum inhibitory concentrations (MIC) of compounds according to the invention for a number of veterinary bacterial pathogens were determined by the broth-microdilution method according to CLSI document VET01-A4. Microdilution trays containing a doubling dilution series of the test compound were used for the tests. […] The lowest concentration of compound at which no visible growth (i.e. no turbidity) detected by the unaided eye was recorded as the MIC. […]

Known results for compounds:
# input Item CC(C)(N)C(NC(=O)c1ccc(C#Cc2ccc(CNCc3ccncc3)cc2)cc1)C(=O)NO (stereo not drawn) : provide MIC
# output 0.25 µg/mL

# input Item C[C@@H](O)[C@H](NC(=O)c1ccc(C#Cc2ccc(CNCC(F)(F)F)cc2)cc1)C(=O)NO : provide MIC
# output ≤0.016 µg/mL

# input Item CC(C)(N)C(NC(=O)c1ccc(C#Cc2ccc(CNC3CC3)cc2)cc1)C(=O)NO (stereo not drawn) : provide MIC
# output 0.5 µg/mL

# input Item COCCNCc1ccc(C#Cc2ccc(C(=O)N[C@H](C(=O)NO)[C@@H](C)O)cc2)s1 : provide MIC
# output 0.125 µg/mL

# input Item COCCNCc1ccc(C#Cc2ccc(C(=O)N[C@H](C(=O)NO)[C@@H](C)O)cc2)cc1 : provide MIC
# output 0.5 µg/mL

API: the following record is the query input.
# input Item CCCNCc1ccc(C#Cc2ccc(C(=O)N[C@H](C(=O)NO)[C@@H](C)O)cc2)cc1 : provide MIC
# output 0.25 µg/mL
